protocol_text: Serum stability in rat serum at 37° C.
Format: in vitro ADME
condition_notes: mono-exponential fit
property_measured: Serum τ1/2 (h) rat
Give your result as the value with the unit written after it.

Give the reported Serum τ1/2 (h) rat for this molecule. E44G/C124A: RLuc mutant E44G/C124A (protein) MASKVYDPEQRKRMITGPQWWARCKQMNVLDSFINYYDSEKHAGNAVIFLHGNAASSYLWRHVVPHIEPVARCIIPDLIGMGKSGKSGNGSYRLLDHYKYLTAWFELLNLPKKIIFVGHDWGAALAFHYSYEHQDKIKAIVHAESVVDVIESWDEWPDIEEDIALIKSEEGEKMVLENNFFVETMLPSKIMRKLEPEEFAAYLEPFKEKGEVRRPTLSWPREIPLVKGGKPDVVQIVRNYNAYLRASDDLPKMFIESDPGFFSNAIVEGAKKFPNTEFVKVKGLHFSQEDAPDEMGKYIKSFVERVLKNEQ 3.3 h
